# tgt: Protein deacetylase HDAC6 (Homo sapiens)
# cond: at 10 µM
The whole screen tested about 5,600 compounds, of which about 390 (7%) showed an effect of 50% or more. This excerpt belongs to a sample that is enriched for strong results.
Overview of reported inhibition across a group of compounds:
Use % as the unit, but write only the number.

Prompt: Consider the compound shown here: CS(=O)(=O)CS(=O)(=O)OCCCl What is its recorded inhibition?
Completion: 9.47

Prompt: Consider the compound shown here: O=C(NO)c1cnc(N2CCN(S(=O)(=O)c3ccc4ccccc4c3)CC2)nc1 What is its recorded inhibition?
Completion: 102

Prompt: Consider the compound shown here: COc1ccc(S(=O)(=O)N2CCCN(S(=O)(=O)c3ccc(OC)c(OC)c3)CC2)cc1OC What is its recorded inhibition?
Completion: 5.48

Prompt: Consider the compound shown here: CNC1CC(c2ccc(Cl)c(Cl)c2)c2ccccc21 (stereo not given) What is its recorded inhibition?
Completion: 30.3

Prompt: Consider the compound shown here: CC(C)C(N)=O What is its recorded inhibition?
Completion: 26.5

###

# tgt: Protein deacetylase HDAC6 (Homo sapiens)
# Sequence (whole entry): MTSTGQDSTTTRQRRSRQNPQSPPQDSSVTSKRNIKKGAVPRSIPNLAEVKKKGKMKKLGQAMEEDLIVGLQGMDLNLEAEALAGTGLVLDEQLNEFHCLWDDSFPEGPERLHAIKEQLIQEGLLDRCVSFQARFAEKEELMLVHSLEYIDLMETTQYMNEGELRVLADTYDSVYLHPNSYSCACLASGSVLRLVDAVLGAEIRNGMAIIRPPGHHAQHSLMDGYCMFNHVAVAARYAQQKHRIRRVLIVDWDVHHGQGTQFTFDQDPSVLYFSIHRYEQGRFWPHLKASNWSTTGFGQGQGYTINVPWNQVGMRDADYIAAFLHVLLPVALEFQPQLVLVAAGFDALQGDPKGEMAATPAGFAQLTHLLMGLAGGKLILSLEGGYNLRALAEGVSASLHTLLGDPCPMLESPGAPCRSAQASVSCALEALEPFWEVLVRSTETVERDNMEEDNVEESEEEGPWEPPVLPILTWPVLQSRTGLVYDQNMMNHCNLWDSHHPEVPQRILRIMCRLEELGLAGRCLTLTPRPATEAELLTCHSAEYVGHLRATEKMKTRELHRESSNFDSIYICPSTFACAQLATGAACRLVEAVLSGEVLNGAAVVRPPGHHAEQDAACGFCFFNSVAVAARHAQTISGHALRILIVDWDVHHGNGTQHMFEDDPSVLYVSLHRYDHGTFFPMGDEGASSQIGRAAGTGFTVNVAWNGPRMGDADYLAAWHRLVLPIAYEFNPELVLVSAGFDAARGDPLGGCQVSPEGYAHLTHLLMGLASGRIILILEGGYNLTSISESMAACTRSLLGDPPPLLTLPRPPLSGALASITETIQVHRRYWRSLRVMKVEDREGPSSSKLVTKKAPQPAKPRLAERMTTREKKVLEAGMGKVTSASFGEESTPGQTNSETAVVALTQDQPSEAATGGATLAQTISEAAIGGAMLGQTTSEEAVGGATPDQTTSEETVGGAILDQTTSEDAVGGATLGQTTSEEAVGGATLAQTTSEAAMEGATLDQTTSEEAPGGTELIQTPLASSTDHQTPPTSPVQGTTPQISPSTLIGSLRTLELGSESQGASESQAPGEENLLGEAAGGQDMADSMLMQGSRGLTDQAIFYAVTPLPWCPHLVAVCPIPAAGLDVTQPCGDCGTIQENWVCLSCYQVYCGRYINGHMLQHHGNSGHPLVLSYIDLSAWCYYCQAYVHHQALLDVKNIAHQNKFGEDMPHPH
# cond: at 10 µM
Screen size: about 5,600 compounds; about 390 (7%) showed an effect of 50% or more. This excerpt belongs to a sample that is enriched for strong results.
Overview of reported inhibition across a group of molecules:
Use % as the unit, but write only the number.

[
  {
    "molecule": "CC(=O)NCCNc1cc(Cl)nn2c(-c3cccc(S(=O)(=O)N(C)C)c3)c(C)nc12",
    "uom": "%",
    "inhibition": 15.6
  }
]

Prompt: Consider the molecule shown here: O=C1C=Cc2cc(Br)ccc2C1=O What is its recorded inhibition?
Completion: 48.5

Prompt: Consider the molecule shown here: O=C(O)Cc1ccc2c(c1)C(=O)c1ccccc1CO2 What is its recorded inhibition?
Completion: 75

Prompt: Consider the molecule shown here: C=C1C(=O)O[C@@H]2[C@H]3C(C)=CC[C@@]34O[C@@]4(C)CC[C@@H]12 What is its recorded inhibition?
Completion: 51

Prompt: Consider the molecule shown here: O=c1[nH]c(CCl)nc2sc3c(c12)CCCC3 What is its recorded inhibition?
Completion: 83.4

Prompt: Consider the molecule shown here: COC1/C=C/OC2(C)Oc3c(C)c(O)c4c(O)c(c(/C=N/N=C/N5CCCCC5)c(O)c4c3C2=O)NC(=O)/C(C)=C\C=C\C(C)C(O)C(C)C(O)C(C)C(OC(C)=O)C1C (stereo unspecified) What is its recorded inhibition?
Completion: 5.78

###

# tgt: Protein deacetylase HDAC6 (Homo sapiens) (UniProt Q9UBN7)
# Sequence (whole entry): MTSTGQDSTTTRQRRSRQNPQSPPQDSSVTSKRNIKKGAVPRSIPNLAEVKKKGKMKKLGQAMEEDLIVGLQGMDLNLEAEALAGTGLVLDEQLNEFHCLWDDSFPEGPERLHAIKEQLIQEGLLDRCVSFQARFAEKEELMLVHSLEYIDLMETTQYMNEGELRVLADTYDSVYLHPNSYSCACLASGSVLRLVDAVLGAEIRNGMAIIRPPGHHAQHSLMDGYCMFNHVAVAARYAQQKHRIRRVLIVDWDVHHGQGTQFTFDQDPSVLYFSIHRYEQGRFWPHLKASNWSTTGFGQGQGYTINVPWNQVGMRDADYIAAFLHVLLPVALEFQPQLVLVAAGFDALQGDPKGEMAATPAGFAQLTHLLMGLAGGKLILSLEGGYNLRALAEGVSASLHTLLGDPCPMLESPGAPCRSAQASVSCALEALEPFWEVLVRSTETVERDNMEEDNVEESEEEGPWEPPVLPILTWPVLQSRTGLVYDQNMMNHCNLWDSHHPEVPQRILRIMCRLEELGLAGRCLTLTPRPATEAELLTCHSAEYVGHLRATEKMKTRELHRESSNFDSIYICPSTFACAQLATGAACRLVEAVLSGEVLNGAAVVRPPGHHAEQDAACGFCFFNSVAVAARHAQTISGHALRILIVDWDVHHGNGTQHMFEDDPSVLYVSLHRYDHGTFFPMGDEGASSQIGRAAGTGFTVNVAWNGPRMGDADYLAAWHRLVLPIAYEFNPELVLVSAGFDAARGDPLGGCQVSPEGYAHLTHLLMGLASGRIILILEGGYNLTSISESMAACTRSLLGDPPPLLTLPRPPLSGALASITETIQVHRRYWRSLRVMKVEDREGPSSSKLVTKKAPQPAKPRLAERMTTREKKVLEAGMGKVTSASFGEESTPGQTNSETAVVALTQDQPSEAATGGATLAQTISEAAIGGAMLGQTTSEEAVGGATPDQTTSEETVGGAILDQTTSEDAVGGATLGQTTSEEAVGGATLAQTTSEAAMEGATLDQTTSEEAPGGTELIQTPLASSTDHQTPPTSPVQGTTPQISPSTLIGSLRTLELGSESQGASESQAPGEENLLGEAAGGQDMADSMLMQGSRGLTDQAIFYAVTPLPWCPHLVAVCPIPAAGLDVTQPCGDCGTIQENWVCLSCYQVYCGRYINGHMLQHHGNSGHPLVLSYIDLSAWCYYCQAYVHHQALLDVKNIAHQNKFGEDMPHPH
# cond: at 10 µM
Among all 5,600 compounds or so, about 390 (7%) showed an effect of 50% or more. What follows is part of a selection rich in strong results, with near analogues and random picks from the rest.
Overview of reported inhibition across a group of compounds:
Use % as the unit, but write only the number.

Please review the following examples before continuing.
[
  {
    "compound": "C[C@]12C=CC(=O)C=C1CC[C@@H]1[C@@H]2[C@@H](O)C[C@@]2(C)[C@H]1CC[C@]2(O)C(=O)COP(=O)(O)O",
    "inhibition, %": 22.1
  },
  {
    "compound": "O=C1NC(O)CCN1[C@@H]1O[C@H](CO)[C@@H](O)[C@H]1O (stereo partly drawn)",
    "inhibition, %": 15.9
  },
  {
    "compound": "CCC(C)c1ccc(NC(=O)Cn2cnc3c2c(=O)n(C)c(=O)n3C)cc1 (stereo not drawn)",
    "inhibition, %": 18.1
  },
  {
    "compound": "C/C1=C/C[C@@H](/C(C)=C/c2csc(C)n2)OC(=O)C[C@H](O)C(C)(C)C(=O)[C@H](C)[C@@H](O)[C@@H](C)CCC1",
    "inhibition, %": -9.51
  },
  {
    "compound": "O=C(O)[C@@H](O)[C@@H](O)[C@H](O)[C@@H](O)C(=O)O",
    "inhibition, %": 1.05
  }
]

Prompt: Consider the compound shown here: CCCC[C@H](NC(C)=O)C(=O)N[C@H]1CC(=O)NCCCC[C@@H](C(=O)O)NC(=O)[C@H](Cc2c[nH]c3ccccc23)NC(=O)[C@H](CCCNC(=N)N)NC(=O)[C@@H](Cc2ccccc2)NC(=O)[C@H](Cc2c[nH]cn2)NC1=O What is its recorded inhibition?
Completion: 38.5

Prompt: Consider the compound shown here: CC(C)(C)NCC(O)c1cc(Br)no1 (stereo not drawn) What is its recorded inhibition?
Completion: 18.5

Prompt: Consider the compound shown here: O=C(Nc1ccc(S(=O)(=O)Nc2ccccc2Cl)c(Cl)c1)c1ccccn1 What is its recorded inhibition?
Completion: 50.8

Prompt: Consider the compound shown here: CCOc1ccc(S(=O)(=O)O)c2cccnc12 What is its recorded inhibition?
Completion: 102

Prompt: Consider the compound shown here: O=C(Nc1ccccc1C(=O)Nc1ccc(CCO)cc1)c1ccc([N+](=O)[O-])cc1 What is its recorded inhibition?
Completion: 78.3
